- target-or-system: T1, wild type human CD47 (Acro Biosystems, cat. no. CD7-H5227) (human, UniProt Q08722 19-139)
- T1 construct: Bought protein used as SPR analyte; also called Human CD47 wt; wild-type CD47
- T1 sequence (Q08722 19-139 limits assumed): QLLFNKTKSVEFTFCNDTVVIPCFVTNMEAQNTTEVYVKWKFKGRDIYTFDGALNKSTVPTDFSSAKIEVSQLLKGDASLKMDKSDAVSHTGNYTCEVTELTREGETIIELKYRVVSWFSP
- protocol-details: SPR, IgG captured, CD47 in flow; exp 3;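 also: biacore T200 SPR with antibodies taken from supernatants of transfected HEK293 cells, C33G mutein avoiding IgV homodimers for monovalent affinity, Kd derived from association and dissociation rate constants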
endpoint: koff (s⁻¹)
Use s⁻¹ as the unit, but write only the number.

Problem: I have this binder here, 108VH4.M4-VL1.M1 (antibody, V domains shown, also called original humanized 108C10A6 antibody) VH: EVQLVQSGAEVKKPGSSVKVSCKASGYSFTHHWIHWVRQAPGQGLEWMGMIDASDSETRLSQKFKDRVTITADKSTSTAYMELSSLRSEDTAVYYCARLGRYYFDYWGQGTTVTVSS VL: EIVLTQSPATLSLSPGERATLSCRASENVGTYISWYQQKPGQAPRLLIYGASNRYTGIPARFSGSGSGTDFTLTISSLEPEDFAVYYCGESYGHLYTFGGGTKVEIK , and I need its recorded koff.
Result: 0.00041
